# testedTarget: Integrin alpha-4/beta-1 (Homo sapiens, UniProt P05556+P13612)
# Sequence (P05556 whole entry): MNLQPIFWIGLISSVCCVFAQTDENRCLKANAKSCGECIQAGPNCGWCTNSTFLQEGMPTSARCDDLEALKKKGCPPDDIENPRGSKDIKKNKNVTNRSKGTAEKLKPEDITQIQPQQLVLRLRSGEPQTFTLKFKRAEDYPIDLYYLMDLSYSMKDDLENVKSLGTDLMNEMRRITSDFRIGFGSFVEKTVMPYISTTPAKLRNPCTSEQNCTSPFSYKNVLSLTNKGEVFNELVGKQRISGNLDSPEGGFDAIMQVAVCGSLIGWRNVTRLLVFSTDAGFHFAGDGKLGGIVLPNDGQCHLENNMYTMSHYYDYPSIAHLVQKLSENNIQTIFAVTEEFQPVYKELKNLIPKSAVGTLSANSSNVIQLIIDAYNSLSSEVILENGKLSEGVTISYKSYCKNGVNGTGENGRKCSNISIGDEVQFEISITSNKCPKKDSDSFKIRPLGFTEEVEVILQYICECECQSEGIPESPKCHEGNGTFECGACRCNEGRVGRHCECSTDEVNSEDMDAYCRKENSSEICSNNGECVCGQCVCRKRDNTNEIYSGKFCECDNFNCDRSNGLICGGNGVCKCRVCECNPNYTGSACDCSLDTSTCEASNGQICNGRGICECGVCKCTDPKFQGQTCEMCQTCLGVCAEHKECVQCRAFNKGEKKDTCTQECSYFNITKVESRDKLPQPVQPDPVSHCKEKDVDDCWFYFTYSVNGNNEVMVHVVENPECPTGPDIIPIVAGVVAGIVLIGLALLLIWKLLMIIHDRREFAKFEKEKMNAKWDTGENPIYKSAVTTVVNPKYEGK
# Sequence (P13612 whole entry): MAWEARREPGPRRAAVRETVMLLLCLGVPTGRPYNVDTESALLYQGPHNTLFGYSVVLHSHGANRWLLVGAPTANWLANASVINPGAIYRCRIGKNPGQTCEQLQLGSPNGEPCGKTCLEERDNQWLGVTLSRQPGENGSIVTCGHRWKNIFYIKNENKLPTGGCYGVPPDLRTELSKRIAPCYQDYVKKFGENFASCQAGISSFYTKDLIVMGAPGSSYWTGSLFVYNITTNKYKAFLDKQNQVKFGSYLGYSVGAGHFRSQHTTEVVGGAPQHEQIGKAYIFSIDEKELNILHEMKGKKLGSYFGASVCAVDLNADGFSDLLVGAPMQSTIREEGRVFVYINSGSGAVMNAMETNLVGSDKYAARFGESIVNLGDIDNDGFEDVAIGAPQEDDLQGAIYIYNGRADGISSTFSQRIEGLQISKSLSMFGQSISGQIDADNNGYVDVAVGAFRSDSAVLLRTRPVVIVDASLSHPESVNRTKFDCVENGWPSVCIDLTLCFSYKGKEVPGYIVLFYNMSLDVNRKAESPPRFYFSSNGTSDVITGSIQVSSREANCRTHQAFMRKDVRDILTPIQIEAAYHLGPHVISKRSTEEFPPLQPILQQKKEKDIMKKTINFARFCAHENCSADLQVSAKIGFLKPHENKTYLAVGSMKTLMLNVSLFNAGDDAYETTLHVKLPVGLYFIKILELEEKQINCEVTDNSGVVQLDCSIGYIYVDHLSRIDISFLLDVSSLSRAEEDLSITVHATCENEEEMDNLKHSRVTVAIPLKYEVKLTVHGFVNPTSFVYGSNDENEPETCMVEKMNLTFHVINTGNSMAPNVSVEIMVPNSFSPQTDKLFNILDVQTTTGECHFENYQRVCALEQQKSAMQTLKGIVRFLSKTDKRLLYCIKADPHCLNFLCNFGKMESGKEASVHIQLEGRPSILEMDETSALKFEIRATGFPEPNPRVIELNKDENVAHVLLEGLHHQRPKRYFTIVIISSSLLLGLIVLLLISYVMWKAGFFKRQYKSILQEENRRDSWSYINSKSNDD
# assayName: Inhibition of integrin alpha4beta1 receptor in human whole blood by flow cytometry
pIC50: −log10 of the molar value.
reportedMetric: pIC50

Take a look at these entries with their results.
# molecule, pIC50
measured = [
    ("O=C(O)[C@H](Cc1ccc(-n2c(C3CCC3)nc3cccnc32)cc1)NC1=C(Br)C(=O)C12CCCCC2", 7.74),
    ("CC(C)SC1=C(N[C@@H](Cc2ccc(-n3c(-c4cccnc4)nc4cccnc43)cc2)C(=O)O)C2(CCCCC2)C1=O", 8.70),
    ("O=C(O)[C@H](Cc1ccc(-n2c(-c3cccnc3)nc3cnccc32)cc1)NC1=C(Cl)C(=O)C12CCCCC2", 6.30),
    ("O=C(O)[C@H](Cc1ccc(-n2c(C3CCCCN3)nc3cccnc32)cc1)NC1=C(Br)C(=O)C12CCCCC2 (stereo not given in full)", 8.52),
    ("O=C(O)[C@H](Cc1ccc(-n2c(-c3ccc(N4CCCCC4)nc3)nc3cccnc32)cc1)NC1=C(Br)C(=O)C12CCCCC2", 7.08),
    ("CSCCc1nc2cccnc2n1-c1ccc(C[C@H](NC2=C(Br)C(=O)C23CCCCC3)C(=O)O)cc1", 7.96),
]

(I) CN(C)c1ccc(-c2nc3cccnc3n2-c2ccc(C[C@H](NC3=C(Br)C(=O)C34CCCCC4)C(=O)O)cc2)cn1
(II) CN(C)c1ccnc(-c2nc3cccnc3n2-c2ccc(C[C@H](NC3=C(Br)C(=O)C34CCCCC4)C(=O)O)cc2)c1
Query: Endpoint returns whichever of I and II has the numerically higher pIC50. Please reply using the label of the selected record.
Response: I
(I: 7.66, II: 7.34)

(1) O=C(O)[C@H](Cc1ccc(-n2c(-c3cccnc3)nc3cccnc32)cc1)NC1=CC(=O)C12CCCCC2
(2) O=C(O)[C@H](Cc1ccc(-n2c(C3CCCNC3)nc3cccnc32)cc1)NC1=C(Br)C(=O)C12CCCCC2 (stereo not given in full)
(3) O=C(O)[C@H](Cc1ccc(-n2c(-c3ccc(Cl)nc3)nc3cccnc32)cc1)NC1=C(Br)C(=O)C12CCCCC2
(4) O=C(O)[C@H](Cc1ccc(-n2c(-c3cccnc3)nc3cnccc32)cc1)NC1=CC(=O)C12CCCCC2
Query: Rank ascending by pIC50. Would you mind listing the labels in the order asked for?
Response: 4, 1, 2, 3
(4: 5.79, 1: 7.62, 2: 8.22, 3: 8.52)

(I) CNc1ccc(-c2nc3cccnc3n2-c2ccc(C[C@H](NC3=C(Br)C(=O)C34CCCCC4)C(=O)O)cc2)cn1
(II) Cc1nc2cccnc2n1-c1ccc(C[C@H](NC2=C(Br)C(=O)C23CCCCC3)C(=O)O)cc1
Query: Between the entries labeled I and II , whose measured pIC50 is lower? Please reply using the label of the selected record.
Response: II

---

# assayName: Metabolic stability in human microsomes assessed as intrinsic clearance at 0.5 uM
# Type: ADME, Microsome
reportedMetric: microsomal CLint at 0.5 µM (µL/min/mg)

(1) CC(C)c1nc2cccnc2n1-c1ccc(C[C@H](NC2=C(Br)C(=O)C23CCCCC3)C(=O)O)cc1
(2) O=C(O)[C@H](Cc1ccc(-n2c(C3(C(F)(F)F)CC3)nc3cccnc32)cc1)NC1=C(Br)C(=O)C12CCCCC2
Query: Between the entries labeled 1 and 2 , whose measured microsomal CLint at 0.5 µM is lower? Please reply using the label of the selected record.
Response: 1
(1: 4 µL/min/mg, 2: 6 µL/min/mg)
